FYI, the data here is from PubChem BioAssay AID623995.

System: Isocitrate dehydrogenase [NADP] cytoplasmic (Homo sapiens)
Method: qHTS for Inhibitors of mutant isocitrate dehydrogenase 1 (IDH1): Cherrypicks in WT IDH1; also: nearly all actives have a fitted effect of over 55% in size
Condition description: WT IDH1 enzyme, NADPH diaphorase/resazurin fluorescence; series mostly up to 115 µM
The other results are listed elsewhere or left out. Records with an inconclusive call do not appear. Active and inactive are the calls of the source. Calls follow the shape of the dose curve; as a rule, active = well fitted inhibition curve with a large enough effect; inconclusive = small, poorly fitted or top-dose-only effect; inactive = no such curve, though single readings can be large or run the other way.
Classes used: active, inactive

INSERT INTO assay_data (compound, system, category_label) VALUES
  ('CC(C)N(C(=O)CSc1nc(COc2ccccc2)nc2ccccc12)C(C)C', 'Isocitrate dehydrogenase [NADP] cytoplasmic (Homo sapiens)', 'inactive'),
  ('Cc1nc(C)c(C(=O)N(c2ccc(C)c(C)c2)C(C(=O)NCc2ccco2)c2ccccc2)s1 (stereo not given)', 'Isocitrate dehydrogenase [NADP] cytoplasmic (Homo sapiens)', 'inactive'),
  ('C(=N/Nc1cc(N2CCOCC2)nc(N2CCOCC2)n1)/c1ccccc1', 'Isocitrate dehydrogenase [NADP] cytoplasmic (Homo sapiens)', 'inactive'),
  ('COc1ccc(/C=C2/SC(=O)N(CCCCCC(=O)Nc3ccccc3C(=O)O)C2=S)cc1', 'Isocitrate dehydrogenase [NADP] cytoplasmic (Homo sapiens)', 'active'),
  ('Cc1nc(-c2ccc(Cl)cc2)sc1C(=O)CBr', 'Isocitrate dehydrogenase [NADP] cytoplasmic (Homo sapiens)', 'inactive'),
  ('Cc1ccc2nc(N3C(=O)C(O)=C(C(=O)c4ccco4)C3c3cccc(O)c3)sc2c1 (stereo not given)', 'Isocitrate dehydrogenase [NADP] cytoplasmic (Homo sapiens)', 'inactive'),
  ('Cc1ccc(Nc2nc(CSc3nnc(-c4ccncc4)n3-c3ccccc3C)cs2)cc1', 'Isocitrate dehydrogenase [NADP] cytoplasmic (Homo sapiens)', 'inactive'),
  ('Cn1c(COc2ccc(Cl)cc2)nc2ccccc2c1=O', 'Isocitrate dehydrogenase [NADP] cytoplasmic (Homo sapiens)', 'inactive'),
  ('CCOC(=O)c1oc2c(CN3CCN(CCO)CC3)c(O)c(CC)cc2c(=O)c1-c1nc2ccccc2s1', 'Isocitrate dehydrogenase [NADP] cytoplasmic (Homo sapiens)', 'inactive'),
  ('COc1cc(/C=C2/C(=O)ON=C2C)ccc1OCc1ccccc1F', 'Isocitrate dehydrogenase [NADP] cytoplasmic (Homo sapiens)', 'inactive');
